# Test protocol: Inhibition of Helix pomatia beta-mannosidase
IC50 listing for selected compounds.
Kindly provide the numeric value in µM only, without the unit symbol.

Illustrative cases are given below, each with its answer.
- Test smiles: "COc1ccc([C@@H]2[C@@H](O)[C@H](O)[C@@H](CO)N2C)cc1"
  IC50 (µM): 61
- Test smiles: "COc1ccc([C@H]2N[C@H](CO)[C@@H](O)[C@@H]2O)cc1O"
  IC50 (µM): 66
- Test smiles: "OC[C@H]1N[C@H](c2ccccc2)[C@@H](O)[C@@H]1O"
  IC50 (µM): 93

Continue with the compound presented below.
**Q:** What value of measured IC50 is listed for COc1ccc([C@@H]2N[C@@H](CO)[C@H](O)[C@H]2O)cc1O ?
**A:** 113
